biological target: human OTR (Homo sapiens, UniProt P30559); assay: Inhibition activity on human OTR (Fluo-4 calcium assay, HEK293/human OTR stably transfected cells); conditions: oxytocin 3 nM
experimental_endpoint: IC50 (nM)

// solved cases for IC50 follow
Request: Query (compound): COc1ccc(-n2c(N3CC(N4CCCc5cc(F)ccc54)C3)nnc2C(F)(F)F)cn1 ; field requested: IC50
Result: 6

Request: Consider next the compound COc1ccc(-n2c(N3CC(N4CCOc5cc(F)ccc54)C3)nnc2C(F)(F)F)cn1 in the same way.
Result: 15

Request: Param item: CCOCc1nnc(N2CC(N3CCOc4cc(F)ccc43)C2)n1-c1ccc(OC)nc1
Result: 79

Request: Cool, now COCc1nnc(N2CC(N3CCCc4cc(F)ccc43)C2)n1-c1ccc(OC)nc1
Result: 4

Request: Continue with CCOCc1nnc(N2CC(n3cc(C)c4cc(F)ccc43)C2)n1-c1ccc(OC)nc1
Result: 188

[A] COCc1nnc(N2CC(n3cc(C)c4cc(F)ccc43)C2)n1-c1ccc(OC)nc1
[B] COc1ccc(-n2c(COC(F)F)nnc2N2CC(c3cccc4cc(F)ccc34)C2)cn1
Request: Which shows the larger IC50 value: A or B ? Pick one; state its label.
Result: A

[1] COc1ccc(-n2c(COC(F)F)nnc2N2CC(n3cc(C)c4cc(F)ccc43)C2)cn1
[2] COc1ccc(-n2c(C(F)F)nnc2N2CC(N3CCOc4cc(F)ccc43)C2)cn1
[3] COc1ccc(-n2c(COC(F)F)nnc2N2CC(N3CCOc4cc(F)ccc43)C2)cn1
Request: Order field: IC50 | Direction: descending (largest first) Return the labels ranked in the requested order, please.
Result: 2, 1, 3
(2: 181 nM, 1: 8 nM, 3: 4 nM)

[P] COc1ccc(-n2c(C)nnc2N2CC(N3CCCc4cc(F)ccc43)C2)cn1
[Q] CCOCc1nnc(N2CC(N3CCCc4cc(F)ccc43)C2)n1-c1ccc2c(c1)OCO2
Request: Lowest IC50? choose P or Q API: response body contains the label of the selected item.
Result: Q

---

target: human V2R (Homo sapiens (Human), UniProt P30518); assay: Inhibition activity on human V2R (cAMP HTRF assay, HEK293/human V2R pool cells); conditions: vasopressin
Sequence (P30518 whole entry): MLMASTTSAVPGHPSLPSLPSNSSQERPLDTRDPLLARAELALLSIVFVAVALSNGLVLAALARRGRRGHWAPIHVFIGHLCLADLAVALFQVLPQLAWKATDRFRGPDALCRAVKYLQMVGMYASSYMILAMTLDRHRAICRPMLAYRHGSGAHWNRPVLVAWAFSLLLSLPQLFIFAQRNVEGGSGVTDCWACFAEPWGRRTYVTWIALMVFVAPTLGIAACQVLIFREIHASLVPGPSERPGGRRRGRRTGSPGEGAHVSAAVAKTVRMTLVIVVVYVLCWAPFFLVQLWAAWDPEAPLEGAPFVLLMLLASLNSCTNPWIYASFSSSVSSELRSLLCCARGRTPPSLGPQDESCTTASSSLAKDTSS
experimental_endpoint: IC50 (µM)

Request: What measured IC50 goes with COCc1nnc(N2CC(c3cn(C)c4cc(F)ccc34)C2)n1-c1ccc(OC)nc1 ?
Result: 11.8

Request: Same question for CCOCc1nnc(N2CC(N3CCCc4cc(F)ccc43)C2)n1-c1ccc2c(c1)OCO2 please.
Result: 9.1

---

assay: Pharmacokinetics assay in rats after intragastrical administration; format: in vivo, SD rats; settings: Sprague-Dawley, rat, plasma, po; 30 mg/kg, intragastric, male rats; read-out: Residence time MRT
experimental_endpoint: MRT (h)

Request: # MRT lookup, item COc1ccc(-n2c(COC(F)F)nnc2N2CC(N3CCOc4cc(F)ccc43)C2)cn1
Result: 4.9

Request: Then COc1ccc(-n2c(COC(F)F)nnc2N2CC(c3cccc4cc(F)ccc34)C2)cn1 ?
Result: 4.19

Request: Again, but for COc1ccc(-n2c(N3CC(N4CCCc5cc(F)ccc54)C3)nnc2C(F)(F)F)cn1
Result: 3.61

Request: Do the same for COCc1nnc(N2CC(n3cc(C)c4cc(F)ccc43)C2)n1-c1ccc(OC)nc1 please
Result: 5.08
